# inhibition listing for each entry below
- target desc: FAD-linked sulfhydryl oxidase ALR (Homo sapiens)
- assay overview: ALR-catalysed DTT oxidation blockers – biochemical, H2O2 detection, HRP-luminol luminescence, single point, primary screen (AID 485317)
- condition description: purified ALR, hits give high values, concentration not given here
The campaign covered roughly 290,000 compounds. About 11,000 (3.8%) were called active. For the sample, actives were picked, then their nearest neighbours and some compounds at random.

Worked set:
CC(=O)CCC(=O)c1ccc2ccccc2c1 :: -2.18% (inactive)
CC(CNC(=O)Cn1cnc2c(OCc3ccccc3)ncnc21)c1ccccc1 (stereo not given) :: -1.23% (inactive)

State measured inhibition of the compound "Cc1cc(C)cc(OCC(=O)Nc2ccc(N3CCOCC3)cc2N2CCOCC2)c1" with FAD-linked sulfhydryl oxidase ALR (Homo sapiens).
7.88% (inactive)

Jot down inhibition (FAD-linked sulfhydryl oxidase ALR (Homo sapiens)) of "COc1ccc(NC(=O)CCC(=O)N2CCN(S(=O)(=O)c3ccc(C)cc3)CC2)c(OC)c1" .
-6.29% (inactive)

Give FAD-linked sulfhydryl oxidase ALR (Homo sapiens) inhibition for the following compound: "Cc1ccccc1-n1c(C)cc(/C=C2\NC(=O)NC2=O)c1C"
-11.5% (inactive)
